# Percent Effect annotations
- testedOn: AMP-activated protein kinase, AMPK (Homo sapiens) (UniProt P54646+O43741+P54619+Q9UGJ0+Q9Y478+Q13131+Q9UGI9)
- assayInfo: AMP-dependent Kinase enzyme assay. An in vitro enzyme assay that detects ADP turnover that is directly proportional to AMPK activity. This uses naive AMPK that is activated during the assay with MK-8722
- Format: functional
- Set-up: scale not given: direction of the effect not stated beside the values
- condition: 30 µM
Give just the number in %; leave the unit off.

query: Return Percent Effect (reported value) for this molecule: O=C1CC2(CCN(Cc3ccccn3)C2)CN1c1cncnc1 (stereo unspecified)
result: 2.73

query: Return Percent Effect (reported value) for this molecule: Cc1ncsc1CN1CC[C@H]2C[C@H](c3ccncn3)O[C@@H]2C1
result: 2.98

query: Return Percent Effect (reported value) for this molecule: CS(=O)(=O)c1ccc(CC(=O)N2CCN3CCNC(=O)C3C2)cc1 (stereo unspecified)
result: -2.22

query: Return Percent Effect (reported value) for this molecule: Cc1nc(CC(=O)N2CCCC(N(C)Cc3ccccc3)C2)cs1 (stereo unspecified)
result: 6.8

query: Return Percent Effect (reported value) for this molecule: c1ccc(CN2C[C@@H]3OCCN(c4ncccn4)[C@@H]3C2)nc1
result: 12.4

query: Return Percent Effect (reported value) for this molecule: O=C1NC2(CCNCC2)CC1c1cccnc1 (stereo unspecified)
result: 15.3

###

# Percent Effect annotations
- testedOn: Shiga toxin 2 (Escherichia coli O157:H7) (UniProt P09385+P09386)
- assayInfo: E. coli 0.157:H7 Shiga Toxin SOP - stx2 screening assay
- Format: functional
- Set-up: scale not given: direction of the effect not stated beside the values
- condition: 30 µM
Give just the number in %; leave the unit off.

Worked set:
molecule	testedOn	observedProperty	testValue
Cc1ccsc1[C@@H]1CCN(C(=O)CCC(=O)N2CCCCCC2)C[C@H]1O	Shiga toxin 2 (Escherichia coli O157:H7) (UniProt P09385+P09386)	Percent Effect	-23.3
O=C(NCCNc1ncccn1)Nc1cc(C(F)(F)F)c[nH]c1=O	Shiga toxin 2 (Escherichia coli O157:H7) (UniProt P09385+P09386)	Percent Effect	3.13
CC(=O)N1CCN(C(=O)C2SCCc3sccc32)CC1 (centres undefined)	Shiga toxin 2 (Escherichia coli O157:H7) (UniProt P09385+P09386)	Percent Effect	-46
Cc1nc(C)n(CC2CN(CCCOc3ccccc3C)CCO2)n1 (centres undefined)	Shiga toxin 2 (Escherichia coli O157:H7) (UniProt P09385+P09386)	Percent Effect	4.82
CCOCCC(=O)N1CCCN(Cc2csc(CC)n2)CC1	Shiga toxin 2 (Escherichia coli O157:H7) (UniProt P09385+P09386)	Percent Effect	-4.81
COCC(=O)N1CCC(c2cc(C(F)(F)F)n3ccnc3n2)CC1	Shiga toxin 2 (Escherichia coli O157:H7) (UniProt P09385+P09386)	Percent Effect	-10.9
CC(C)c1ncc2c(n1)CN(Cc1cccc(C#N)c1)CC2	Shiga toxin 2 (Escherichia coli O157:H7) (UniProt P09385+P09386)	Percent Effect	-1.08
Cc1c(C(=O)NCC2CCCO2)nnn1-c1cccc2c1CCN(C)C2 (centres undefined)	Shiga toxin 2 (Escherichia coli O157:H7) (UniProt P09385+P09386)	Percent Effect	-26.5

query: Return Percent Effect (reported value) for this molecule: Cc1noc(C)c1C(=O)NCC(c1ccc(F)cc1)N(C)C (centres undefined)
result: 16

query: Return Percent Effect (reported value) for this molecule: CN(C)CC1CN(Cc2nnc(-c3ccccc3Cl)o2)CCO1 (centres undefined)
result: -41.7

query: Return Percent Effect (reported value) for this molecule: Cc1ccc(CC(=O)N2CC[C@@H]3CN(CCN(C)C)CCO[C@@H]3C2)cc1
result: -3.9

query: Return Percent Effect (reported value) for this molecule: CC(Cn1ccnc1)NC(=O)N1CCN(Cc2cccnc2)CC1 (centres undefined)
result: 6.15

query: Return Percent Effect (reported value) for this molecule: CC(NC(=O)c1cccs1)C(=O)NCc1cccnc1N1CCCCC1 (centres undefined)
result: 11

query: Return Percent Effect (reported value) for this molecule: COc1ccc(F)cc1C(C)NC(=O)Nc1nnc(C)s1 (centres undefined)
result: 15.6

query: Return Percent Effect (reported value) for this molecule: c1cnn(CC2CCCN2Cc2nc(-c3ccoc3)no2)c1 (centres undefined)
result: -0.74

query: Return Percent Effect (reported value) for this molecule: CC(Cn1cccn1)NC(=O)Nc1nnc(C2CC2)s1 (centres undefined)
result: 7.79

query: Return Percent Effect (reported value) for this molecule: Cc1nc(C)n(CC2CCCN2Cc2cn3ccsc3n2)n1 (centres undefined)
result: -76

query: Return Percent Effect (reported value) for this molecule: CSCC(=O)N1CCC2(CC1)c1ccccc1CC2O (centres undefined)
result: -32.5

query: Return Percent Effect (reported value) for this molecule: Cc1cnccc1CN1CC[C@@](C)(O)[C@H](Oc2ccccc2)C1
result: -31

query: Return Percent Effect (reported value) for this molecule: O=C(NCCc1nnc2n1CCC2)NC1(c2cccc(F)c2)CC1
result: -25
